Test system: Radical scavenging activity
Assay: Antioxidant activity assessed as DPPH radical scavenging activity at 100 uM after 60 mins
Format: functional
The following molecules are shown together with reported Activity values.

| molecule | unit-string | Activity |
| --- | --- | --- |
| COc1cc(O)c(C(=O)/C=C/c2ccc(Cl)cc2)c(OC)c1 | % | 46.9 |
| COc1cc(OC)c2c(c1)O/C(=C\c1ccccc1OC)C2=O | % | 30.8 |
| O=C(/C=C/c1ccc(Cl)cc1)c1ccccc1O | % | 40.8 |
| COc1cc(OC)c2c(c1)O/C(=C\c1ccc(Cl)cc1)C2=O | % | 20.8 |
| COc1cccc(/C=C/C(=O)c2ccccc2O)c1 | % | 34.6 |
| COc1cc(OC)c2c(c1)O/C(=C\c1ccc(C)cc1)C2=O | % | 29.2 |
| COc1cc(O)c(C(=O)/C=C/c2ccc(C)cc2)c(OC)c1 | % | 24.6 |
| Cc1ccc(/C=C2\Oc3ccccc3C2=O)cc1 | % | 49.2 |
| COc1ccc(/C=C/C(=O)c2c(O)cc(OC)cc2OC)cc1 | % | 40.8 |
| COc1ccc(/C=C2\Oc3cc(OC)cc(OC)c3C2=O)cc1 | % | 11.5 |
| COc1cc(O)c(C(=O)/C=C/c2ccc(OC)c(OC)c2)c(OC)c1 | % | 20.8 |
| COc1ccccc1/C=C1\Oc2ccccc2C1=O [(Z)-2'-METHOXYAURONE] | % | 43.1 |
| COc1ccccc1/C=C/C(=O)c1ccccc1O | % | 57.7 |
| COc1ccc(/C=C2\Oc3ccccc3C2=O)cc1 | % | 23.8 |
| CC(Cc1ccc(O)c(O)c1)C(C)Cc1ccc(O)c(O)c1 (stereo not drawn) [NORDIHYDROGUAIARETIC ACID] | % | 83 |
| COCOc1cc(O)c(C(=O)/C=C/c2ccc(OCOC)c(OCOC)c2)c(OCOC)c1 | % | 65.4 |
| COc1cccc(/C=C2\Oc3ccccc3C2=O)c1 | % | 83.8 |
| Cc1ccc(/C=C/C(=O)c2ccccc2O)cc1 | % | 43.8 |

###

Tested on: Glycine max
Test: Inhibition of soybean 5-lipoxygenase at 100 uM by UV-absorbance based enzyme assay
Label true when inhibition is at or above 5%; otherwise label false.

| compound | answer-label |
| --- | --- |
| COc1cc(O)c(C(=O)/C=C/c2ccc(OC)c(OC)c2)c(OC)c1 | false |
| O=C(/C=C/c1ccc(O)c(O)c1)c1c(O)cc(O)cc1O [3,4,2',4',6'-PENTAHYDROXYCHALCONE] | false |
| O=C1/C(=C/c2ccc(O)c(O)c2)Oc2cc(O)cc(O)c21 | false |
| COCOc1cc(OCOC)c2c(c1)O/C(=C\c1ccc(OCOC)c(OCOC)c1)C2=O | false |
| COc1cc(OC)c2c(c1)O/C(=C\c1ccc(Cl)cc1)C2=O | true |
| COc1cccc(/C=C2\Oc3ccccc3C2=O)c1 [3'-METHOXY-AURONE] | true |
| COc1cccc(/C=C/C(=O)c2ccccc2O)c1 | true |
| COc1ccccc1/C=C1\Oc2ccccc2C1=O [(Z)-2'-METHOXYAURONE] | true |
| COCOc1cc(O)c(C(=O)/C=C/c2ccc(OCOC)c(OCOC)c2)c(OCOC)c1 | true |

###

The following compounds are shown together with reported pIC50 values.
Experiment: Inhibition of soybean 5-lipoxygenase by UV-absorbance based enzyme assay
Parameters: species or system Glycine max
pIC50: −log10 of the molar value.

| compound | pIC50 |
| --- | --- |
| COc1cc(O)c(C(=O)/C=C/c2ccc(C)cc2)c(OC)c1 | 4.28 |
| COc1ccc(/C=C2\Oc3cc(OC)cc(OC)c3C2=O)cc1 | 4.30 |
| Cc1ccc(/C=C/C(=O)c2ccccc2O)cc1 | 4.28 |
| CC(Cc1ccc(O)c(O)c1)C(C)Cc1ccc(O)c(O)c1 (stereo unspecified) [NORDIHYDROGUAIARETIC ACID] | 4.40 |
| COc1cc(OC)c2c(c1)O/C(=C\c1ccccc1OC)C2=O | 4.00 |
| O=C(/C=C/c1ccc(Cl)cc1)c1ccccc1O | 4.25 |
| COc1ccc(/C=C2\Oc3ccccc3C2=O)cc1 | 4.15 |
| COc1ccccc1/C=C/C(=O)c1ccccc1O | 4.00 |
| COc1cc(O)c(C(=O)/C=C/c2ccc(Cl)cc2)c(OC)c1 | 4.09 |
| O=C(O)/C=C/c1ccc(O)c(O)c1 | 3.22 |
| COc1ccc(/C=C/C(=O)c2ccccc2O)cc1OC | 4.17 |

###

The following compounds are shown together with reported Activity values.
Tested on: Radical scavenging activity
Assay: Antioxidant activity assessed as DPPH radical scavenging activity at 100 uM after 60 mins
Assay type: functional

| compound | system-name | unit-string | Activity |
| --- | --- | --- | --- |
| COc1ccc(/C=C/C(=O)c2ccccc2O)cc1OC | Radical scavenging activity | % | 28.5 |
| COc1ccc(/C=C/C(=O)c2ccccc2O)cc1 | Radical scavenging activity | % | 40.8 |
| O=C1/C(=C/c2ccc(O)c(O)c2)Oc2cc(O)cc(O)c21 | Radical scavenging activity | % | 97.7 |
| O=C(/C=C/c1ccc(O)c(O)c1)c1c(O)cc(O)cc1O [3,4,2',4',6'-PENTAHYDROXYCHALCONE] | Radical scavenging activity | % | 94.9 |
| COc1cc(O)c(C(=O)/C=C/c2ccccc2OC)c(OC)c1 | Radical scavenging activity | % | 47.7 |
| O=C1/C(=C/c2ccc(Cl)cc2)Oc2ccccc21 | Radical scavenging activity | % | 76.2 |
